From: the array DNA melting data of Ke et al.

Experiment: melting temperature; melt of duplexes
Details: sodium 0.0675 M; strand 1 µM
ENDPOINT_LABEL: Tm (°C)
Use °C as the unit, but write only the number.

Sample records with Tm:
INSERT INTO assay_data (substance, value_reported) VALUES
  ('CGACGTGCAGCATGTGCTG+CAGCACATAGTGCACGTCG (((((((((..((((((((+))))))))..)))))))))', 44.4),
  ('CGACGTGCTGCATGTGCTG+CAGCACATGGAGCACGTCG (((((((((.(((((((((+))))))))).)))))))))', 61.2),
  ('CGACGTGCTATATGTGCTG+CAGCACATGAAGCACGTCG (((((((((..((((((((+))))))))..)))))))))', 53.2),
  ('CGACGTGCTACATGTGCTG+CAGCACATCAAGCACGTCG (((((((((..((((((((+))))))))..)))))))))', 50.6),
  ('CGACGTGCATCATGTGCTG+CAGCACATTTCGCACGTCG ((((((((...((((((((+))))))))...))))))))', 46.9);

Challenge: // fetch Tm given entry CGACGTGCAGTATGTGCTG+CAGCACATCATGCACGTCG (((((((((..((((((((+))))))))..)))))))))
Response given: 51.4

Challenge: Output Tm of CGACGTGCGGTATGTGCTG+CAGCACATCTGGCACGTCG ((((((((...((((((((+))))))))...))))))))
Response given: 51.6

* * *

Assay: melting temperature; melt of duplexes
Details: sodium 0.0675 M; strand 1 µM
Threshold-based label: Tm under 50 °C gives fulfilled, Tm not under 50 °C gives not fulfilled.

# count of solved cases: 3
INSERT INTO assay_data (substance, assigned_label) VALUES
  ('CGACGTGCTCAATGTGCTG+CAGCACATCACGCACGTCG ((((((((...((((((((+))))))))...))))))))', 'fulfilled'),
  ('CGACGTGCTCAATGTGCTG+CAGCACATCCCGCACGTCG ((((((((...((((((((+))))))))...))))))))', 'fulfilled'),
  ('CGACGTGCAGAATGTGCTG+CAGCACATTCTGCACGTCG (((((((((((((((((((+)))))))))))))))))))', 'not fulfilled');

Challenge: Take the substance CGACGTGCGGCATGTGCTG+CAGCACATGTCGCACGTCG (((((((((.(((((((((+))))))))).))))))))) and say whether its Tm is less than 50 °C.
Response given: not fulfilled

Challenge: Answer whether the substance CGACGTGCATGATGTGCTG+CAGCACATAAGGCACGTCG ((((((((.(.((((((((+)))))))).).)))))))) has Tm strictly less than 50 °C
Response given: not fulfilled

Challenge: I'd appreciate it if you could check whether CGACGTGCTCAATGTGCTG+CAGCACATGCTGCACGTCG ((((((((...((((((((+))))))))...)))))))) has Tm smaller than 50 °C.
Response given: fulfilled

Challenge: Determine whether this substance shows Tm lower than 50 °C (ties excluded): CGACGTGCTTTATGTGCTG+CAGCACATAGAGCACGTCG (((((((((.(((((((((+))))))))).)))))))))
Response given: not fulfilled

* * *

Experiment: melting temperature; melt of duplexes
Settings: sodium 0.0675 M; strand 1 µM
Everything with Tm lower than 50 °C is false; everything else, including exactly 50 °C, is true.

Study these solved cases before continuing.
INSERT INTO measurements (substance, assigned_label) VALUES
  ('CGACGTGCGGAATGTGCTG+CAGCACATGGCGCACGTCG (((((((((..((((((((+))))))))..)))))))))', 'true'),
  ('CGACGTGCAACATGTGCTG+CAGCACATCCGGCACGTCG ((((((((...((((((((+))))))))...))))))))', 'false'),
  ('CGACGTGCACTATGTGCTG+CAGCACATCCGGCACGTCG ((((((((...((((((((+))))))))...))))))))', 'false'),
  ('CGACGTGCGTTATGTGCTG+CAGCACATGGTGCACGTCG ((((((((...((((((((+))))))))...))))))))', 'false'),
  ('CGACGTGCCTCATGTGCTG+CAGCACATCATGCACGTCG ((((((((.(.((((((((+)))))))).).))))))))', 'false');

Challenge: Is the recorded value of Tm equal to or greater than 50 °C for this substance? CGACGTGCTGCATGTGCTG+CAGCACATTACGCACGTCG ((((((((...((((((((+))))))))...))))))))
Response given: false

Challenge: Is Tm for CGACGTGCACTATGTGCTG+CAGCACATTATGCACGTCG (((((((((..((((((((+))))))))..))))))))) at or above 50 °C?
Response given: false

Challenge: Answer whether Tm of CGACGTGCCAAATGTGCTG+CAGCACATAGGGCACGTCG (((((((((..((((((((+))))))))..))))))))) is greater than or equal to 50 °C.
Response given: true

Challenge: Say whether CGACGTGCCGCATGTGCTG+CAGCACATGCGGCACGTCG (((((((((((((((((((+))))))))))))))))))) shows Tm of 50 °C or more.
Response given: true

Challenge: State whether the measured Tm reaches 50 °C, counting equality as reaching it, for CGACGTGCGGGATGTGCTG+CAGCACATGCAGCACGTCG ((((((((.(.((((((((+)))))))).).))))))))
Response given: true

Challenge: Reported Tm at or above 50 °C? CGACGTGCCCGATGTGCTG+CAGCACATTACGCACGTCG ((((((((...((((((((+))))))))...))))))))
Response given: false

Challenge: Entry CGACGTGCGAAATGTGCTG+CAGCACATTGTGCACGTCG ((((((((..(((((((((+)))))))))..)))))))) : is its Tm no less than 50 °C?
Response given: true

Challenge: I'd appreciate it if you could say whether CGACGTGCTCGATGTGCTG+CAGCACATGATGCACGTCG ((((((((...((((((((+))))))))...)))))))) has Tm at least equal to 50 °C.
Response given: true

Challenge: Does the substance CGACGTGCGAGATGTGCTG+CAGCACATTTAGCACGTCG ((((((((.(.((((((((+)))))))).).)))))))) have recorded Tm that is 50 °C or more?
Response given: true

Challenge: Has CGACGTGCTAAATGTGCTG+CAGCACATGGGGCACGTCG ((((((((...((((((((+))))))))...)))))))) a recorded Tm greater than or equal to 50 °C?
Response given: true

Challenge: Can CGACGTGCCCTATGTGCTG+CAGCACATTGAGCACGTCG ((((((((.(.((((((((+)))))))).).)))))))) be said to have Tm at or above 50 °C?
Response given: true

Challenge: Assess whether reported Tm for CGACGTGCCAGATGTGCTG+CAGCACATGAGGCACGTCG (((((((((..((((((((+))))))))..))))))))) sits at 50 °C or higher.
Response given: true

Challenge: Does Tm meet or surpass 50 °C for CGACGTGCCGAATGTGCTG+CAGCACATAGGGCACGTCG (((((((((..((((((((+))))))))..))))))))) ?
Response given: true

Challenge: Item CGACGTGCATAATGTGCTG+CAGCACATGTTGCACGTCG (((((((((..((((((((+))))))))..))))))))) with Tm of 50 °C or above?
Response given: true

* * *

Experiment: melting temperature; melt of duplexes
Conditions: sodium 0.0675 M; strand 1 µM
// Tm lookup, one value per entry
Only the number, expressed in °C, is required.

INSERT INTO measurements (substance, value_reported) VALUES
  ('CGACGTGCTACATGTGCTG+CAGCACATCTGGCACGTCG ((((((((.(.((((((((+)))))))).).))))))))', 49.9),
  ('CGACGTGCCACATGTGCTG+CAGCACATCAAGCACGTCG ((((((((...((((((((+))))))))...))))))))', 47.7),
  ('CGACGTGCAGCATGTGCTG+CAGCACATCACGCACGTCG ((((((((...((((((((+))))))))...))))))))', 46.7),
  ('CGACGTGCCGTATGTGCTG+CAGCACATTGCGCACGTCG ((((((((...((((((((+))))))))...))))))))', 49.3),
  ('CGACGTGCATTATGTGCTG+CAGCACATAGTGCACGTCG (((((((((.(((((((((+))))))))).)))))))))', 53.1);

Challenge: Tell me measured Tm for CGACGTGCAGTATGTGCTG+CAGCACATATGGCACGTCG ((((((((..(((((((((+)))))))))..)))))))) please.
Response given: 52.7

Challenge: Look up Tm of CGACGTGCAGTATGTGCTG+CAGCACATTGGGCACGTCG ((((((((...((((((((+))))))))...)))))))) and report it.
Response given: 48.8
